- systemName: T1, CTNI quality control recombinant protein (PK2-CTNI-1, 170120, produced by the applicant) (human, UniProt P19429 2-210, limits assumed)
- T1 construct: also called cardiac troponin I
- T1 sequence (P19429 2-210 limits assumed): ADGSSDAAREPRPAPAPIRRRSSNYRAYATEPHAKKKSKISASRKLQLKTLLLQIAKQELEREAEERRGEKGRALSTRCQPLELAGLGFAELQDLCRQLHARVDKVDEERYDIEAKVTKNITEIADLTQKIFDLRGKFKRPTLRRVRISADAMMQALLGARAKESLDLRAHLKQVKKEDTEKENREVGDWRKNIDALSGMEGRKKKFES
- assayComment: AMC sensor kinetics, antibody captured, cTnI analyte
measurementLabel: Kd (nM)
Provide only the numeric value, understood in nM.

binder="Mutation 1-38 (antibody, V domains shown, built as for Mutation 1) VH: EVQLQQSGAELVKPGASVKLSCTASGFNIKDYYMHWMKQRTEQGLDWIGRIDPEDAETKYAPEFQGKATITADTSSNTAYLQLSTLTSEDTAVYYCARYYSSYIPFVYWGQGTLVTASA VL: DVVMTQTPLSLSVSLGDQASISCRSSQSLIYSNRHTYLHWYLQKPGQSPKLLIFQISNRFSGVPDRFSGSGSGTDFTLKINRVEAEDLGVYFCSQSTHIPFTFGSGTKLEIKR" measurementlabel=Kd observed=0.24

Input Mutation 1-14 (antibody, V domains shown, built as for Mutation 1) VH: EVQLQQSGAELVKPGASVKLSCTASGFNIKDYFMHWMKQRTEQGLDWIGRIDPEDAETKYAPEFQGKATITADTSSNTAYLQLSTLTSEDTAVYYCARYYSSYIPFVYWGQGTLVTASA VL: DVVMTQTPLSLSVSLGDQASISCRSSQSLLYSNRHTYLHWYLQKPGQSPKLLIFQISNRFSGVPDRFSGSGSGTDFTLKINRVEAEDLGVYFCSQSTHIPFTFGSGTKLEIKR . Output Kd: 0.415

Input Mutation 1-37 (antibody, V domains shown, built as for Mutation 1) VH: EVQLQQSGAELVKPGASVKLSCTASGFNIKDYFMHWMKQRTEQGLDWIGRIDPEDGETKYAPEFQGKATITADTSSNTAYLQLSTLTSEDTAVYYCARYYSSYVPFVYWGQGTLVTASA VL: DVVMTQTPLSLSVSLGDQASISCRSSQSILYSNRHTYLHWYLQKPGQSPKLLIFQVSNRFSGVPDRFSGSGSGTDFTLKINRVEAEDLGVYFCSQSTHLPYTFGSGTKLEIKR . Output Kd: 0.667
